measurement.notes: Pharmacokinetics of a single 60 mg edoxaban dose before and during clarithromycin
experimental.parameters: human, in vivo, po, 60 mg
property: AUC (ng·h/mL)
Could you give me the number in ng·h/mL? Just the number is fine.

Tell me measured AUC for CN1CCc2nc(C(=O)N[C@@H]3C[C@@H](C(=O)N(C)C)CC[C@@H]3NC(=O)C(=O)Nc3ccc(Cl)cn3)sc2C1 please. 1170

====

measurement.notes: Pharmacokinetics of a single 60 mg edoxaban dose before and during clarithromycin
experimental.parameters: human, in vivo, 60 mg, Tmax, geometric mean, edoxaban 60 mg, at clarithromycin steady-state
property: Tmax (h)
Could you give me the number in h? Just the number is fine.

Tell me measured Tmax for CN1CCc2nc(C(=O)N[C@@H]3C[C@@H](C(=O)N(C)C)CC[C@@H]3NC(=O)C(=O)Nc3ccc(Cl)cn3)sc2C1 please. 1.67
